- Target System: Sirt6 (Homo sapiens)
- Construct: purchased CycLex CY-1156V2
- Test Method Notes: Measurement of Sirt6 Activity (CycLex Sirt6 Deacetylase Fluorometric Assay Kit)
- Assay type: biochemical
- Study Conditions: compound at 10 μM; fluorescence relative to the group without compound treatment (positive control group)
Overview of recorded Sirt6 Activity (% activity, 10 μM) for various compounds
Give the quantity in % activity, number only.

Take a look at these entries with their results.
Compound | Sirt6 Activity (% activity, 10 μM) [% activity]
CCNS(=O)(=O)c1cccc(-c2nn(-c3ccc(F)cc3)c(=O)c3ccccc23)c1 [Example 87] | 226
CN(C)S(=O)(=O)c1cccc(-c2nn(-c3ccc(F)cc3)c(=O)c3ccccc23)c1 [Example 88] | 180
CC(C)(C(=O)NC1CC1)c1cccc(-c2nn(-c3ccc(F)cc3F)c(=O)c3ccccc23)c1 [Example 178] | 331.00

So for Nc1cccc(-c2nn(-c3ccc(C(F)(F)F)cc3)c(=O)c3ccccc23)c1 [Example 2] , the logged Sirt6 Activity (% activity, 10 μM) turned out to be 88

* * *

- Target System: Sirt6 (Homo sapiens)
- Construct: purchased CycLex CY-1156V2
- Test Method Notes: Measurement of Sirt6 Activity (CycLex Sirt6 Deacetylase Fluorometric Assay Kit)
- Format: biochemical
- Study Conditions: compound at 10 μM; fluorescence relative to the group without compound treatment (positive control group)
Reported Property: Sirt6 Activity (% activity, 10 μM) (% activity)
Lab book: enter the figure in % activity, no units written.

Please review the following examples before continuing.
Compound | Sirt6 Activity (% activity, 10 μM), % activity
Cn1cc(NC(=O)C(C)(C)c2cccc(-c3nn(-c4ccc(F)cc4F)c(=O)c4ccccc34)c2)cn1 | 219.60
CC(C)(C(=O)O)c1cccc(-c2nn(-c3ccc(F)cc3)c(=O)c3ccccc23)c1 | 195.5
O=c1c2ccccc2c(-c2ccc[n+]([O-])c2)nn1-c1c(F)cccc1F | 231
CC(C)(C)/[N+]([O-])=C/c1cc(-c2nn(-c3ccc(F)cc3)c(=O)c3ccccc23)ccc1F | 172
CCCS(=O)(=O)N(C)c1cccc(-c2nn(-c3ccc(F)cc3)c(=O)c3ccccc23)c1 | 115

Consider Cl.O=c1c2ccccc2c(N2CCCC[C@@H](NCCO)C2)nn1-c1ccc(F)cc1F . Its measured Sirt6 Activity (% activity, 10 μM) is 312.70

Record O=c1c2ccccc2c(N2CCCCC(O)C2)nn1-c1ccc(F)cc1F (centres unmarked) , field Sirt6 Activity (% activity, 10 μM): 332.60

COC(=O)C1(C2CCCN(c3nn(-c4ccc(F)cc4F)c(=O)c4ccccc34)C2)CC1 (centres unmarked) yielded Sirt6 Activity (% activity, 10 μM) of 170.00

Form field Sirt6 Activity (% activity, 10 μM), entry Cl.N[C@@H]1CCCCN(c2nn(-c3ccccc3F)c(=O)c3ccccc23)C1 : 155.3

Sirt6 Activity (% activity, 10 μM) reading for CCS(=O)(=O)Nc1cccc(-c2nn(C3CCCCC3)c(=O)c3ccccc23)c1 : 177.53

Reported Sirt6 Activity (% activity, 10 μM) for O=c1c2ccccc2c(-c2ccc[n+]([O-])c2)nn1-c1ccc(F)cc1 was 226

CC(C)(c1cccc(-c2nn(-c3ccc(F)cc3F)c(=O)c3ccccc23)c1)c1nnn[nH]1 has a reported Sirt6 Activity (% activity, 10 μM) of 211.3

* * *

- Target System: Sirt6 (Homo sapiens)
- Construct: purchased CycLex CY-1156V2
- Test Method Notes: Measurement of Sirt6 Activity (CycLex Sirt6 Deacetylase Fluorometric Assay Kit)
- Type: biochemical
- Study Conditions: compound at 10 μM; fluorescence relative to the group without compound treatment (positive control group)
Each record here notes measured Sirt6 Activity (% activity, 10 μM).
Entry rule: numbers only, all in % activity.

Sirt6 Activity (% activity, 10 μM) recorded for this compound, CCS(=O)(=O)Nc1cccc(-c2nn(Cc3ccc(F)cc3)c(=O)c3ccccc23)c1 , is 103

Notebook: CCS(=O)(=O)N[C@@H]1CCCN(c2nn(-c3ccc(F)cc3)c(=O)c3ccccc23)C1 , Sirt6 Activity (% activity, 10 μM) read as 130.07

Record summary for CN(c1cccc(-c2nn(-c3ccccc3)c(=O)c3ccccc23)c1)S(C)(=O)=O : reported Sirt6 Activity (% activity, 10 μM) = 173

Looking up CN(C)S(=O)(=O)Nc1cccc(-c2nn(-c3ccccc3)c(=O)c3ccccc23)c1 , I found its Sirt6 Activity (% activity, 10 μM) recorded as 154

Sirt6 Activity (% activity, 10 μM) reported for this compound Cl.N[C@H]1CCCCN(c2nn(C3CCCCC3)c(=O)c3ccccc23)C1 : 230.9

* * *

Sirt6 Activity (% activity, 10 μM) by entry:
- Target System: Sirt6 (Homo sapiens, UniProt Q8N6T7)
- Construct: purchased CycLex CY-1156V2
- Sequence (Q8N6T7 whole entry): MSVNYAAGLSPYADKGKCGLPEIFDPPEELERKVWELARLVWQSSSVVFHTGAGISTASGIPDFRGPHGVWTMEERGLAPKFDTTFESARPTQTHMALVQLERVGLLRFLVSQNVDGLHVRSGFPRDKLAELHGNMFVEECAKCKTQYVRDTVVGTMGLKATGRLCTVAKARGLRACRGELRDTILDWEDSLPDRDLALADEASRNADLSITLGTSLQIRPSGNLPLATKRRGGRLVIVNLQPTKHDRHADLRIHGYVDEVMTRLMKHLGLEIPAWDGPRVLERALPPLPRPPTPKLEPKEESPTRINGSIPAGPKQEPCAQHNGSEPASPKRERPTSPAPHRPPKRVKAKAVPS
- Test Method Notes: Measurement of Sirt6 Activity (CycLex Sirt6 Deacetylase Fluorometric Assay Kit)
- Assay type: biochemical
- Study Conditions: compound at 10 μM; fluorescence relative to the group without compound treatment (positive control group)
- Procedure: LC-MS (ESI, m/z)=430.1 (M+H^+) Experimental Example 1: Measurement of Sirt6 Activity Compounds having Sirt6 activity were selected using a CycLex Sirt6 Deacetylase Fluorometric Assay Kit (cat. CY-1156V2) manufactured by CycLex. When a fluorescent-attached acetylated lysine substrate is treated with Sirt6 enzyme, Sirt6 deacetylates the acetylated lysine of the substrate and lysylendopeptidase cleaves the C-terminal peptide bond connected to the lysine, by which fluorescence is emitted. […]
Please give a number only; it is taken to be in % activity.

// returns Sirt6 Activity (% activity, 10 μM) for COC(=O)N(C)S(=O)(=O)N(C)c1cccc(-c2nn(-c3ccc(F)cc3)c(=O)c3ccccc23)c1 with Sirt6 (Homo sapiens, UniProt Q8N6T7); value = 125

Form: item O=c1c2ccccc2c(-c2cccc(/C=[N+](\[O-])Cc3ccccc3)c2)nn1-c1ccc(F)cc1 ; test system Sirt6 (Homo sapiens, UniProt Q8N6T7); Sirt6 Activity (% activity, 10 μM): 142

Noted Sirt6 Activity (% activity, 10 μM) for CCS(=O)(=O)N[C@H]1CCCN(c2nn(C3CCCCC3)c(=O)c3ccccc23)C1 , tested on Sirt6 (Homo sapiens, UniProt Q8N6T7): 127.7

Given the molecule C/[N+]([O-])=C/c1cccc(-c2nn(-c3c(F)cccc3F)c(=O)c3ccccc23)c1 and test system Sirt6 (Homo sapiens, UniProt Q8N6T7), the measured Sirt6 Activity (% activity, 10 μM) is 206

Reading of Sirt6 Activity (% activity, 10 μM) for C/[N+]([O-])=C/c1cccc(-c2nn(-c3ccccc3F)c(=O)c3ccccc23)c1 with Sirt6 (Homo sapiens, UniProt Q8N6T7): 272

Param item: CC(C)(/C(N)=N\O)c1cccc(-c2nn(-c3ccc(F)cc3F)c(=O)c3ccccc23)c1 ; param system: Sirt6 (Homo sapiens, UniProt Q8N6T7); output Sirt6 Activity (% activity, 10 μM): 262.7

For the molecule C/[N+]([O-])=C/c1cccc(-c2nn(-c3ccc(F)cc3)c(=O)c3ccccc23)c1 , the measured Sirt6 Activity (% activity, 10 μM) on Sirt6 (Homo sapiens, UniProt Q8N6T7) was 231

Sirt6 Activity (% activity, 10 μM) on Sirt6 (Homo sapiens, UniProt Q8N6T7) for CCS(=O)(=O)N(C)c1cccc(-c2nn(-c3ccc(C(F)(F)F)cc3)c(=O)c3ccccc23)c1 is 105

Log: Sirt6 (Homo sapiens, UniProt Q8N6T7), molecule O=c1c2ccccc2c(-c2cc(/C=[N+](\[O-])Cc3ccccc3)ccc2F)nn1-c1ccc(F)cc1 , Sirt6 Activity (% activity, 10 μM) = 131

The value of Sirt6 Activity (% activity, 10 μM) recorded for CCS(=O)(=O)c1cccc(-c2nn(-c3c(F)cccc3F)c(=O)c3ccccc23)c1 when tested on Sirt6 (Homo sapiens, UniProt Q8N6T7) reads 141

Assay Sirt6 (Homo sapiens, UniProt Q8N6T7), sample Cl.O=c1c2ccccc2c(C2=CCNCC2)nn1-c1ccc(F)cc1F , Sirt6 Activity (% activity, 10 μM) read: 226.60

Tested on Sirt6 (Homo sapiens, UniProt Q8N6T7), the item Cl.N[C@H]1CCCCN(c2nn(-c3ccc(F)cc3)c(=O)c3ccccc23)C1 showed Sirt6 Activity (% activity, 10 μM) equal to 164.7

So the reported Sirt6 Activity (% activity, 10 μM) for C/[N+]([O-])=C/c1cccc(-c2nn(-c3ccccc3)c(=O)c3ccccc23)c1 , on Sirt6 (Homo sapiens, UniProt Q8N6T7), turned out to be 181

* * *

- Target System: Sirt6 (Homo sapiens)
- Construct: purchased CycLex CY-1156V2
- Test Method Notes: Measurement of Sirt6 Activity (CycLex Sirt6 Deacetylase Fluorometric Assay Kit)
- Type: biochemical
- Study Conditions: compound at 10 μM; fluorescence relative to the group without compound treatment (positive control group)
Reported Property: Sirt6 Activity (% activity, 10 μM) (% activity)
Write the answer as a number in % activity, unit excluded.

Past entries and their recorded results:
Cpd Smiles | Target System | Unit Tag | Test Value
O=C(O)C1(c2cccc(-c3nn(-c4ccc(F)cc4F)c(=O)c4ccccc34)c2)CC1 | Sirt6 (Homo sapiens) | % activity | 194.70
CCS(=O)(=O)Nc1cccc(-c2nn(C3CCN(C)CC3)c(=O)c3ccccc23)c1 | Sirt6 (Homo sapiens) | % activity | 104.16
CS(=O)(=O)c1cccc(-c2nn(-c3ccccc3F)c(=O)c3ccccc23)c1 | Sirt6 (Homo sapiens) | % activity | 286
CC(C)(C)/[N+]([O-])=C/c1cccc(-c2nn(-c3ccccc3F)c(=O)c3ccccc23)c1 | Sirt6 (Homo sapiens) | % activity | 176
CCS(=O)(=O)N(C)c1cccc(-c2nn(-c3ccc(-c4ccccc4)cc3)c(=O)c3ccccc23)c1 | Sirt6 (Homo sapiens) | % activity | 96

Sample CS(=O)(=O)c1cccc(-c2nn(-c3c(F)cccc3F)c(=O)c3ccccc23)c1 ; Sirt6 Activity (% activity, 10 μM) observed: 226

Sirt6 Activity (% activity, 10 μM) recorded for this compound, CNC(=O)C(C)(C)c1cccc(-c2nn(C3CCCCC3)c(=O)c3ccccc23)c1 , is 285.5

The value of Sirt6 Activity (% activity, 10 μM) measured for the compound CCS(=O)(=O)Nc1cccc(-c2nn(-c3ccc(F)cc3F)c(=O)c3ccccc23)c1 turned out to be 147
